Test Settings: in vivo, po, 30 mg/kg
Result Type: Cmax (µM)
Answers are plain numbers, in µM.

For the molecule CC(C)C(=O)OC[C@H]1O[C@@](C#N)(c2ccc3c(N)ncnn23)[C@H](OC(=O)C(C)C)[C@@H]1OC(=O)C(C)C , report Cmax.
15.8

----------
Type: in vivo, Sprague-Dawley rats
Test Settings: male, Sprague-Dawley, rat, in vivo, po, 12.7 mg/kg
Result Type: Cmax

# return recorded Cmax for input CC(C)C(=O)OC[C@H]1O[C@@H](n2ccc(NO)nc2=O)[C@H](O)[C@@H]1O [Molnupiravir, reference compound]
4.09 µM

----------
Experimental Details: in vivo
Test Settings: male, Sprague-Dawley, rat, po, 10 mg/kg, Reference Compound A Cmax
Result Type: Cmax (nM)
Numbers only, in nM.

Assign Cmax to the following record: N#C[C@@]1(c2ccc3c(N)ncnn23)O[C@H](CO)[C@@H](O)[C@H]1O [Reference Compound A]
578

----------
Experimental Details: in vitro
Test Settings: hamster
Result Type: CC50

Use these answered entries as a reference point.
* CCC(CC)COC(=O)[C@H](C)N[P@](=O)(OC[C@H]1O[C@@](C#N)(c2ccc3c(N)ncnn23)[C@H](O)[C@@H]1O)Oc1ccccc1 | > 100 µM
* CC(C)C(=O)OC[C@H]1O[C@@](C#N)(c2ccc3c(N)ncnn23)[C@H](OC(=O)C(C)C)[C@@H]1OC(=O)C(C)C | > 100 µM

Please turn your attention to the following entry.
Read off the recorded CC50 for N#C[C@@]1(c2ccc3c(N)ncnn23)O[C@H](CO)[C@@H](O)[C@H]1O [Reference Compound A]
> 100 µM

----------
Record form. Attribute: EC50. Fill in for each entry.
Test system: SARS-CoV-2 BZ/2021 P.1
Experimental Details: microbe, parasite or virus in culture
Type: cell-based
Test Settings: Severe acute respiratory syndrome coronavirus 2, Vero C1008
Units required after the number.

* CC(C)C(=O)OC[C@H]1O[C@@](C#N)(c2ccc3c(N)ncnn23)[C@H](OC(=O)C(C)C)[C@@H]1OC(=O)C(C)C [Compound 1] | 220 nM

For N#C[C@@]1(c2ccc3c(N)ncnn23)O[C@H](CO)[C@@H](O)[C@H]1O [Reference Compound A] , write its EC50.
550 nM

----------
Experimental Details: in vivo
Test Settings: female, po, 20 mg/kg
Result Type: Cmax (µM)
One number for each entry, in µM.

Quickly give me recorded Cmax for N#C[C@@]1(c2ccc3c(N)ncnn23)O[C@H](CO)[C@@H](O)[C@H]1O [Reference Compound A]
11.7

----------
Target Under Test: T1, CES1 (Homo sapiens, UniProt P23141)
T1 construct: purchased
T1 sequence (P23141 18-567): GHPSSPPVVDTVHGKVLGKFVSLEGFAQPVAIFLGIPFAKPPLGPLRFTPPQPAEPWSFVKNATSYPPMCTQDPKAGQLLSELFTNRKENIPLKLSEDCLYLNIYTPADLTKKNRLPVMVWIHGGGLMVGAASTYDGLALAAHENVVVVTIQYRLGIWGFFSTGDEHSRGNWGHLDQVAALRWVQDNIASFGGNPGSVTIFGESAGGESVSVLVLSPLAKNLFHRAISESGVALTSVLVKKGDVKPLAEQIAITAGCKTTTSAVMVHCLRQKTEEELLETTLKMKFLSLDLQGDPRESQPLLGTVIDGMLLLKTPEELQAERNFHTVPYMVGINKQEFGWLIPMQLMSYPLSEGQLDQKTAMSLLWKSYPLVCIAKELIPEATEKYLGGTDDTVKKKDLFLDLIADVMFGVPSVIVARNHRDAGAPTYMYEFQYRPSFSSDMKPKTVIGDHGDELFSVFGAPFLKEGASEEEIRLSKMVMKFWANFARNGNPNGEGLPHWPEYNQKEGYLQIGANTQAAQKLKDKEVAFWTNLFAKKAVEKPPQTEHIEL
Experimental Details: CES1/2 stability, CES1
Assay type: in vitro ADME
Test Settings: CES1 Supersome preparation; Supersome preparations, CES 1.5 mg/ml, 2 μM substrate, pH 7.4, 37° C.; read-out: CES1 T1/2
Assignment: determine reported half-life at 2 μM for the given molecules.

• CC(C)C(=O)OC[C@H]1O[C@@H](n2ccc(NO)nc2=O)[C@H](O)[C@@H]1O [Molnupiravir, reference compound] = 30 to 51 min

Would you be so kind as to report half-life at 2 μM for each listed record?
1. CC(C)C(=O)OC[C@H]1O[C@@](C#N)(c2ccc3c(N)ncnn23)[C@H](O)[C@@H]1O
2. CC(C)C(=O)OC[C@H]1O[C@@](C#N)(c2ccc3c(N)ncnn23)[C@H](OC(=O)C(C)C)[C@@H]1OC(=O)C(C)C

1. 6 min
2. < 1 min

----------
Experimental Details: in vitro
Test Settings: African green monkey
Result Type: CC50

Worked set:
- CCC(CC)COC(=O)[C@H](C)N[P@](=O)(OC[C@H]1O[C@@](C#N)(c2ccc3c(N)ncnn23)[C@H](O)[C@@H]1O)Oc1ccccc1: > 100 µM
- CC(C)C(=O)OC[C@H]1O[C@@](C#N)(c2ccc3c(N)ncnn23)[C@H](OC(=O)C(C)C)[C@@H]1OC(=O)C(C)C: > 100 µM

Now examine the next entry.
Give me measured CC50, please, for this compound: N#C[C@@]1(c2ccc3c(N)ncnn23)O[C@H](CO)[C@@H](O)[C@H]1O [Reference Compound A]
> 100 µM

----------
Tested on: SARS-CoV-2-Nluc viruses
Experimental Details: microbe, parasite or virus in culture
Type: cell-based
Test Settings: Severe acute respiratory syndrome coronavirus 2; host cells A549-ACE2; read-out: EC50, WA1/2020-nano luciferase
Result Type: pEC50
Numbers only, as −log10 of the molar value.

// input: 3 molecules below; output: pEC50 for each
1. N#C[C@@]1(c2ccc3c(N)ncnn23)O[C@H](CO)[C@@H](O)[C@H]1O [Reference Compound A]
2. CCC(CC)COC(=O)[C@H](C)N[P@](=O)(OC[C@H]1O[C@@](C#N)(c2ccc3c(N)ncnn23)[C@H](O)[C@@H]1O)Oc1ccccc1
3. CC(C)C(=O)OC[C@H]1O[C@@](C#N)(c2ccc3c(N)ncnn23)[C@H](OC(=O)C(C)C)[C@@H]1OC(=O)C(C)C

1: 5.80; 2: 7.17; 3: 6.01

----------
Field: CC50. Provide a value for each of the compounds that follow.
Experimental Details: in vitro
Test Settings: human, CC50, M6 HAE, primary HAE donor M6, 72 hours, PrestoBlue

• CC(C)C(=O)OC[C@H]1O[C@@](C#N)(c2ccc3c(N)ncnn23)[C@H](OC(=O)C(C)C)[C@@H]1OC(=O)C(C)C = 92.3 µM
• CCC(CC)COC(=O)[C@H](C)N[P@](=O)(OC[C@H]1O[C@@](C#N)(c2ccc3c(N)ncnn23)[C@H](O)[C@@H]1O)Oc1ccccc1 = > 100 µM

As a next step, examine the compound that follows.
Give the value of CC50 reported for the following: N#C[C@@]1(c2ccc3c(N)ncnn23)O[C@H](CO)[C@@H](O)[C@H]1O [Reference Compound A]
> 100 µM

----------
Experimental Details: in vitro
Test Settings: human, CC50, F2 HAE, primary HAE donor F2, 72 hours, PrestoBlue
Result Type: CC50 (µM)
Numbers only, in µM.

Read the entry CC(C)C(=O)OC[C@H]1O[C@@](C#N)(c2ccc3c(N)ncnn23)[C@H](OC(=O)C(C)C)[C@@H]1OC(=O)C(C)C and write its reported CC50.
43.8

----------
Experimental Details: in vitro
Test Settings: human
Result Type: CC50

Identify the reported CC50 for the following entry. N#C[C@@]1(c2ccc3c(N)ncnn23)O[C@H](CO)[C@@H](O)[C@H]1O [Reference Compound A]
> 100 µM

----------
System: RSV-Fluc (Respiratory Syncytial virus strain A2 containing the firefly luciferase reporter)
Experimental Details: microbe, parasite or virus in culture
Format: cell-based
Test Settings: human respiratory syncytial virus, 72 h, NHBE cells, three days
Threshold-based label: EC50 under 600 nM gives Criterion met, EC50 not under 600 nM gives Criterion not met.

Previously resolved entries follow.
• N#C[C@@]1(c2ccc3c(N)ncnn23)O[C@H](COC(=O)C2CCCCC2)[C@@H](O)[C@H]1O = Criterion not met
• CC(C)(C)CC(=O)OC[C@H]1O[C@@](C#N)(c2ccc3c(N)ncnn23)[C@H](O)[C@@H]1O = Criterion not met

Strictly below 600 nM: is that where EC50 of Cc1ccc(C(=O)OC[C@H]2O[C@@](C#N)(c3ccc4c(N)ncnn34)[C@H](O)[C@@H]2O)cc1 sits?
Criterion met

Is 600 nM strictly greater than the molecule's reported EC50? molecule: N#C[C@@]1(c2ccc3c(N)ncnn23)O[C@H](COC(=O)C2CC3CCCC3C2)[C@@H](O)[C@H]1O (stereo partly drawn)
Criterion not met

Check if EC50 falls below 600 nM for N#C[C@@]1(c2ccc3c(N)ncnn23)O[C@H](CO)[C@@H](O)[C@H]1O [Reference Compound A] .
Criterion not met

Regarding N#C[C@@]1(c2ccc3c(N)ncnn23)O[C@H](COC(=O)C2CCCCCC2)[C@@H](O)[C@H]1O , kindly confirm whether its EC50 is beneath 600 nM.
Criterion not met

Please check: EC50 for CCCCCC(=O)OC[C@H]1O[C@@](C#N)(c2ccc3c(N)ncnn23)[C@H](O)[C@@H]1O , strictly under 600 nM or not?
Criterion not met

For N#C[C@@]1(c2ccc3c(N)ncnn23)O[C@H](COC(=O)C2CC3(CCC3)C2)[C@@H](O)[C@H]1O , is the recorded EC50 below the cut-off of 600 nM?
Criterion not met

----------
Type: in vivo, Sprague-Dawley rats
Test Settings: male Sprague-Dawley rats, plasma; oral NHC 10 mg/kg; read-out: NHC Cmax
Result Type: Cmax (µM)
Give bare numbers, in µM.

Write down Cmax measured for item O=c1nc(NO)ccn1[C@@H]1O[C@H](CO)[C@@H](O)[C@H]1O [NHC, β-d-N^4-hydroxycytidine]
3.13

----------
Experimental Details: Plasma stability
Test Settings: human
Result Type: half-life at 2 μM (min)
Answers are plain numbers, in min.

- CC(C)C(=O)OC[C@H]1O[C@@](C#N)(c2ccc3c(N)ncnn23)[C@H](O)[C@@H]1O: 29
- CC(C)C(=O)OC[C@H]1O[C@@H](n2ccc(NO)nc2=O)[C@H](O)[C@@H]1O [Molnupiravir, reference compound]: 51

Please give the documented half-life at 2 μM of CC(C)C(=O)OC[C@H]1O[C@@](C#N)(c2ccc3c(N)ncnn23)[C@H](OC(=O)C(C)C)[C@@H]1OC(=O)C(C)C
5.5
